Target: CYP1A2 (Homo sapiens, UniProt P05177)
Sequence (P05177 1-516): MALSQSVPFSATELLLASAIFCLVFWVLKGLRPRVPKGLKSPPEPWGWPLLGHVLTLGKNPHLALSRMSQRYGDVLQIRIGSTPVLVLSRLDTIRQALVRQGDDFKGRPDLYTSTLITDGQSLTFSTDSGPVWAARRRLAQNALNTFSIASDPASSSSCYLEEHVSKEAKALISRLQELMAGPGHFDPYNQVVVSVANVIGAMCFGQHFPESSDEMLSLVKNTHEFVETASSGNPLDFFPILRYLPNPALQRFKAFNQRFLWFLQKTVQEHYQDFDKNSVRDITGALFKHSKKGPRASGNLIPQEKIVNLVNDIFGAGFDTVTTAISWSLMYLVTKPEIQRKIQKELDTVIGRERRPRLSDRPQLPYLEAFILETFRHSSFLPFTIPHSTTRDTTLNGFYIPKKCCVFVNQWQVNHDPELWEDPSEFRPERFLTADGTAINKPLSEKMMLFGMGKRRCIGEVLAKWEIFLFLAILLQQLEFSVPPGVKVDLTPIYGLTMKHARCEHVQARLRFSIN
Assay: CYP1A2 inhibition, probe/drug metabolism in human liver microsomes (LC-MS/MS)
Conditions: IC50 against metabolism of melatonin mediated by CYP1A2, substrate melatonin 5 μM, 30 min
Experimental Readout: pIC50
Keep in mind that pIC50 stands for -log10 of concentration in molar terms.

What does the data say about its pIC50? Entry: CC(=CC(=O)CC(C)C(=O)O)C1CC(=O)C2(C)C3=C(C(=O)C(O)C12C)C1(C)CCC(=O)C(C)(CO)C1CC3O (stereo not shown)
4.72
